zone of inhibition at 5000 µg/mL for assorted compounds
test system: Candida albicans; experiment: Antifungal activity against Candida albicans MTCC 461 assessed as zone of inhibition at 5 mg/ml after 24 hrs by agar well diffusion method; type: functional; conditions: MTCC 461, 24 h, read-out: IZ
Could you write the number and then its unit?

Examples with their reported zone of inhibition at 5000 µg/mL follow.
Task: Find the recorded zone of inhibition at 5000 µg/mL belonging to CCCn1c(-c2ccc(Cl)cc2Cl)nc2cc(C(=O)N/N=C/c3ccccc3)ccc21 and report it.
Result: 12 mm

Task: What about CCCn1c(-c2ccc(Cl)cc2Cl)nc2cc(C(=O)N/N=C/c3ccccc3F)ccc21 ?
Result: 19 mm

Task: What about OC(Cn1cncn1)(Cn1cncn1)c1ccc(F)cc1F [FLUCONAZOLE] ?
Result: 23 mm

---
Task: Find the recorded zone of inhibition at 5000 µg/mL belonging to CCCn1c(-c2ccc(Cl)cc2Cl)nc2cc(C(=O)N/N=C/c3cccc(Cl)c3Cl)ccc21 and report it.
Result: 16 mm

----------
system: Staphylococcus aureus; test: Antimicrobial activity against Staphylococcus aureus MTCC 3160 assessed as zone of inhibition at 5 mg/ml after 24 hrs by agar well diffusion method; type: functional; details: MTCC 3160, 24 h, read-out: IZ
Endpoint: zone of inhibition at 5000 µg/mL (mm)
The reply should be a number in mm, with the unit left off.

Examples with their reported zone of inhibition at 5000 µg/mL follow.
Task: Param readout = zone of inhibition at 5000 µg/mL; param system = Staphylococcus aureus; param query = CCCn1c(-c2ccc(Cl)cc2Cl)nc2cc(C(=O)N/N=C/c3ccccc3[N+](=O)[O-])ccc21 ; response: value
Result: 15

Task: What about CCCn1c(-c2ccc(Cl)cc2Cl)nc2cc(C(=O)N/N=C/c3ccc(C)cc3)ccc21 ?
Result: 20

Task: What about CCCn1c(-c2ccc(Cl)cc2Cl)nc2cc(C(=O)N/N=C/c3cccc([N+](=O)[O-])c3)ccc21 ?
Result: 17

From here, focus on the item given below.
Task: Param readout = zone of inhibition at 5000 µg/mL; param system = Staphylococcus aureus; param query = CCCn1c(-c2ccc(Cl)cc2Cl)nc2cc(C(=O)N/N=C/c3ccccc3F)ccc21 ; response: value
Result: 17

----------
tested on: Staphylococcus aureus; test: Antimicrobial activity against Staphylococcus aureus MTCC 3160 assessed as zone of inhibition at 5 mg/ml after 24 hrs by agar well diffusion method; type: functional; settings: MTCC 3160, 24 h, read-out: IZ
Endpoint: zone of inhibition at 5000 µg/mL (mm)
The reply should be a number in mm, with the unit left off.

Task: Param readout = zone of inhibition at 5000 µg/mL; param system = Staphylococcus aureus; param query = CCCn1c(-c2ccc(Cl)cc2Cl)nc2cc(C(=O)N/N=C/c3cc(Br)ccc3O)ccc21 ; response: value
Result: 22

Task: What about CCCn1c(-c2ccc(Cl)cc2Cl)nc2cc(C(=O)N/N=C/c3cc(C)c(O)c(C)c3)ccc21 ?
Result: 17

Task: What about CCCn1c(-c2ccc(Cl)cc2Cl)nc2cc(C(=O)N/N=C/c3cccc(Br)c3)ccc21 ?
Result: 18

Task: What about CCCn1c(-c2ccc(Cl)cc2Cl)nc2cc(C(=O)N/N=C/c3ccc(Br)cc3)ccc21 ?
Result: 17

Task: What about CCCn1c(-c2ccc(Cl)cc2Cl)nc2cc(C(=O)N/N=C/c3ccc(OC)cc3)ccc21 ?
Result: 17

Task: What about CCCn1c(-c2ccc(Cl)cc2Cl)nc2cc(C(=O)N/N=C/c3ccc(Cl)cc3)ccc21 ?
Result: 12

----------
zone of inhibition at 5000 µg/mL for assorted molecules
system: Staphylococcus aureus; assay: Antimicrobial activity against Staphylococcus aureus MTCC 3160 assessed as zone of inhibition at 5 mg/ml after 24 hrs by agar well diffusion method; assay type: functional; conditions: MTCC 3160, 24 h, read-out: IZ
The reply should be a number in mm, with the unit left off.

Task: Find the recorded zone of inhibition at 5000 µg/mL belonging to CCCn1c(-c2ccc(Cl)cc2Cl)nc2cc(C(=O)N/N=C/c3ccccc3Cl)ccc21 and report it.
Result: 15

Task: What about CCCn1c(-c2ccc(Cl)cc2Cl)nc2cc(C(=O)N/N=C/c3ccc([N+](=O)[O-])cc3)ccc21 ?
Result: 17

Task: What about CCCn1c(-c2ccc(Cl)cc2Cl)nc2cc(C(=O)N/N=C/c3cccc(Cl)c3)ccc21 ?
Result: 15
